Tested on: CCRF-CEM
Assay: CCK-8 proliferation, CCRF-CEM
Assay type: cell-based, Human
Conditions: Homo sapiens, CCRF-CEM; CCK-8; 96 hours; read-out: Inhibitory activity (IC50) on tumor cell proliferation, CCRF-CEM
pIC50: −log10 of the molar value.
Property: pIC50

Example entries and their recorded answers appear below.
- Compound: "CC1(C)CCC(c2ccc(Cl)cc2)=C(CN2CCN(c3ccc(C(=O)NS(=O)(=O)c4ccc(N[C@H](CCN5CCN(Cc6cc(N7CCC(=O)NC7=O)ncc6F)CC5)CSc5ccccc5)c(S(=O)(=O)C(F)(F)F)c4)cc3)CC2)C1 [GT-07716]"
  pIC50: "7.30 to 8.00"
- Compound: "CC1(C)CCC(CN2CCN(c3ccc(C(=O)NS(=O)(=O)c4ccc(NCC5CCOCC5)c([N+](=O)[O-])c4)c(Oc4cnc5[nH]ccc5c4)c3)CC2)=C(c2ccc(Cl)cc2)C1 [ABT-199, Venetoclax, reference compound]"
  pIC50: "5.30 to 6.00"
- Compound: "Cc1ccsc1C(=O)n1nc(Nc2ccc(S(=O)(=O)N3CCN(Cc4ccc(N5CCC(=O)NC5=O)cc4)CC3)cc2)nc1N [GT-06856]"
  pIC50: "6.00 to 6.30"
- Compound: "CC1(C)CCC(c2ccc(Cl)cc2)=C(CN2CCN(c3ccc(C(=O)NS(=O)(=O)c4ccc(N[C@H](CCN5CCN(Cc6ccc(C7CCC(=O)NC7=O)c(F)c6)CC5)CSc5ccccc5)c(S(=O)(=O)C(F)(F)F)c4)cc3)CC2)C1 (some centres unmarked) [GT-04152]"
  pIC50: "8.00 to 9.00"
- Compound: "O=C1CCC(c2ccc(CN3CCC(n4cc(NC(=O)c5coc(-c6ccnc(NCC(F)(F)F)c6)n5)c(C(F)F)n4)CC3)cc2F)C(=O)N1 (centres unmarked) [GT-04087]"
  pIC50: "8.00 to 9.00"
- Compound: "CC1(C)CCC(c2ccc(Cl)cc2)=C(CN2CCN(c3ccc(C(=O)NS(=O)(=O)c4ccc(N[C@H](CCN5CCN(Cc6cccc(NC7CCC(=O)NC7=O)c6)CC5)CSc5ccccc5)c(S(=O)(=O)C(F)(F)F)c4)cc3)CC2)C1 (some centres unmarked) [GT-04279]"
  pIC50: "8.00 to 9.00"

Could you please provide reported pIC50 for CCN1CCN(Cc2ccc(Nc3ncc(F)c(-c4cc(F)c5nc(C)n(C(C)C)c5c4)n3)nc2)CC1 [abemaciclib, reference compound] ? Thanks!
5.30 to 6.00

* * *

Tested on: SW620
Experiment: CCK-8 proliferation, SW620
Format: cell-based
Details: Homo sapiens, SW-620; CCK-8; 96 hours; read-out: Inhibitory activity (IC50) on tumor cell proliferation, SW620
pIC50: −log10 of the molar value.
We begin with a simple list: items and their reported pIC50.

Known results for compounds:
- Compound: "NC(=O)c1ncc(N2CCCCC2)nc1Nc1ccc(C2CCN(Cc3cccc(NC4CCC(=O)NC4=O)c3)CC2)cc1 (stereo not drawn)"
  Measured: "6.00 to 6.30"
- Compound: "CNC(=O)c1ccccc1Nc1cc(Nc2ccc(N3CCN(Cc4ccc(C5CCC(=O)NC5=O)cc4)CC3)cc2OC)ncc1C(F)(F)F (stereo not drawn)"
  Measured: "6.00 to 6.30"

Indicate its recorded pIC50; the compound in question is CC1(C)CCC(c2ccc(Cl)cc2)=C(CN2CCN(c3ccc(C(=O)NS(=O)(=O)c4ccc(N[C@H](CCN5CCN(Cc6cccc(NC7CCC(=O)NC7=O)c6)CC5)CSc5ccccc5)c(S(=O)(=O)C(F)(F)F)c4)cc3)CC2)C1 (stereo partly drawn)
7.00 to 7.30

Tell me measured pIC50 for CNC(=O)c1ccccc1Nc1cc(Nc2ccc(N3CCC(N(C)Cc4ccc(C5CCC(=O)NC5=O)cc4)CC3)cc2OC)ncc1C(F)(F)F (stereo not drawn) please.
6.30 to 7.00

Give recorded pIC50. NC(=O)c1ccc(N2CCC(N3CCN(Cc4ccc(C5CCC(=O)NC5=O)cc4)CC3)CC2)nc1-c1ccc(Oc2ccccc2)cc1 (stereo not drawn)
6.00 to 6.30

// fetch pIC50 given entry Cc1nc(Nc2ncc(C(=O)Nc3c(C)cccc3Cl)s2)cc(N2CCN(CCO)CC2)n1 [Dasatinib, reference compound]
5.30 to 6.00

* * *

Test system: LNcap
Experiment: CCK-8 proliferation, LNcap
Format: cell-based
Details: Homo sapiens, LNCaP; CCK-8; 96 hours; read-out: Inhibitory activity (IC50) on tumor cell proliferation, Lncap
Quick reference: IC50 of the listed items.

Provide the reported IC50 (system: LNcap) for CC1(C)CCC(c2ccc(Cl)cc2)=C(CN2CCN(c3ccc(C(=O)NS(=O)(=O)c4ccc(N[C@H](CCN5CCN(Cc6cccc(NC7CCC(=O)NC7=O)c6)CC5)CSc5ccccc5)c(S(=O)(=O)C(F)(F)F)c4)cc3)CC2)C1 (some centres unmarked)
50 to 100 nM

Param request: IC50 | system LNcap | item CC1(C)CCC(c2ccc(Cl)cc2)=C(CN2CCN(c3ccc(C(=O)NS(=O)(=O)c4ccc(N[C@H](CCN5CCN(Cc6cccc(N7CCC(=O)NC7=O)c6)CC5)CSc5ccccc5)c(S(=O)(=O)C(F)(F)F)c4)cc3)CC2)C1
100 to 500 nM

Please look at CN(Cc1ccc(C2CCC(=O)NC2=O)c(F)c1)C1CCN(c2ncc(C(=O)Nc3ccc(OC(F)(F)Cl)cc3)cc2-c2cc[nH]n2)CC1 (centres unmarked) and tell me its recorded IC50 on LNcap.
100 to 500 nM

Look up and report measured IC50 (LNcap) for the following molecule: CC1(C)CCC(c2ccc(Cl)cc2)=C(CN2CCN(c3ccc(C(=O)NS(=O)(=O)c4ccc(N[C@H](CCN5CCN(Cc6ccc(C7CCC(=O)NC7=O)c(F)c6)CC5)CSc5ccccc5)c(S(=O)(=O)C(F)(F)F)c4)cc3)CC2)C1 (some centres unmarked)
50 to 100 nM

Enter IC50 (test system LNcap) for Cc1nc(Nc2ncc(C(=O)Nc3c(C)cccc3Cl)s2)cc(N2CCN(CCO)CC2)n1 [Dasatinib, reference compound]
5000 to 10000 nM

* * *

Target: human Cereblon WT GST-tagged protein (Homo sapiens, UniProt Q96SW2)
Construct: purchased CISBIO 64BDCRBNPEH
Sequence (Q96SW2 whole entry): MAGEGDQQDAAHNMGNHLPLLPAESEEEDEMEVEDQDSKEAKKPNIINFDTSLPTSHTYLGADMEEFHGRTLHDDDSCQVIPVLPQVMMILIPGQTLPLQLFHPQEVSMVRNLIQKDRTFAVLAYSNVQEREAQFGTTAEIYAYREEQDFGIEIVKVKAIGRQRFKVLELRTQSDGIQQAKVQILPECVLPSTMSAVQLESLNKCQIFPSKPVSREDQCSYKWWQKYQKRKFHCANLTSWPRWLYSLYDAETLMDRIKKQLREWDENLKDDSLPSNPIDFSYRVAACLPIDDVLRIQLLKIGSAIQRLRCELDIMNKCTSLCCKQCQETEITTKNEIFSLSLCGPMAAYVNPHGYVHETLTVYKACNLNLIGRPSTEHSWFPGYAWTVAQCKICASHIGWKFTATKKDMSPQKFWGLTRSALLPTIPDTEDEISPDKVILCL
Assay: CRBN binding, HTRF (CEREBLON BINDING kit)
Conditions: Table II-2, CRBN binding screening, HTRF; at 2 µM; read-out: Inhibition rate (%) at 2 µM
Reported inhibition at 2 µM values follow for various compounds

Examples with their reported inhibition at 2 µM follow.
- Compound: "CNC(=O)c1ccccc1Nc1cc(Nc2cc(C)c(C3CCN(Cc4cc(C5CCC(=O)NC5=O)cnc4F)CC3)cc2OC(C)C)ncc1C(F)(F)F (stereo not drawn)"
  inhibition at 2 µM: "60 to 80%"
- Compound: "O=C1CCN(c2cnc(F)c(CN3CCC(n4cc(NC(=O)c5cnn6ccc(N7CCOCC7)nc56)c(C(F)F)n4)CC3)c2)C(=O)N1"
  inhibition at 2 µM: "60 to 80%"
- Compound: "C[C@@H]1CNC(=O)c2cc3ccc(C(=O)Nc4cnn(Cc5ccc(N6CCC(N7CCN(Cc8ccc(N9CCC(=O)NC9=O)cn8)CC7)CC6)cc5)c4)nc3n21"
  inhibition at 2 µM: "80 to 100%"

Note inhibition at 2 µM for the compound shown: COc1cc(C(=O)NC2CCN(Cc3cccc(N4CCC(=O)NC4=O)c3)CC2)c(F)cc1Nc1ncc(C(F)(F)F)c(Oc2cccc3c2C(=O)N(C)C3)n1
80 to 100%

Check the records and state inhibition at 2 µM for CC(C)(O)c1cc2nc(C3CCN(Cc4cc(C5CCC(=O)NC5=O)cnc4F)CC3)sc2cc1NC(=O)c1cccc(C(F)(F)F)n1 (stereo not drawn)
60 to 80%

Retrieve inhibition at 2 µM measured for C[C@@H]1CNC(=O)c2cc3ccc(C(=O)Nc4cnn(Cc5ccc(N6CCC(N7CCN(Cc8cc(C9CCC(=O)NC9=O)cnc8F)CC7)CC6)cc5)c4)nc3n21 (stereo partly drawn) and print it.
53 to 60%

Give recorded inhibition at 2 µM. COc1cc2nn(C3CCN(Cc4ccc(C5CCC(=O)NC5=O)cn4)CC3)cc2cc1NC(=O)c1cccc(C(F)(F)F)c1 (stereo not drawn)
60 to 80%

* * *

Molecular target: human Cereblon WT GST-tagged protein (Homo sapiens, UniProt Q96SW2)
Construct: purchased CISBIO 64BDCRBNPEH
Assay: CRBN binding, HTRF (CEREBLON BINDING kit)
Conditions: Table II-2, CRBN binding screening, HTRF; at 2 µM

- Compound: "O=C1CCC(c2ccc(CN3CCC(n4cc(NC(=O)c5coc(-c6ccnc(NCC(F)(F)F)c6)n5)c(C(F)F)n4)CC3)cc2)C(=O)N1 (stereo not shown)"
  Inhibition rate (%) at 2 µM: "a6 (60% < a6 ≤ 80%)"
- Compound: "CNC(=O)c1ccccc1Nc1cc(Nc2cc(C)c(C3CCN(Cc4cccc(N5CCC(=O)NC5=O)c4)CC3)cc2OC(C)C)ncc1C(F)(F)F"
  Inhibition rate (%) at 2 µM: "a5 (53% < a5 ≤ 60%)"
- Compound: "CC1(C)CCC(c2ccc(Cl)cc2)=C(CN2CCN(c3ccc(C(=O)NS(=O)(=O)c4ccc(N[C@H](CCN5CC6CCC5CN6Cc5ccc(C6CCC(=O)NC6=O)cc5)CSc5ccccc5)c(S(=O)(=O)C(F)(F)F)c4)cc3)CC2)C1 (stereo partly shown)"
  Inhibition rate (%) at 2 µM: "a5 (53% < a5 ≤ 60%)"
- Compound: "CC(C)(O)c1cc2nc(C3CCN(Cc4ccc(C5CCC(=O)NC5=O)cn4)CC3)sc2cc1NC(=O)c1cccc(C(F)(F)F)n1 (stereo not shown)"
  Inhibition rate (%) at 2 µM: "a6 (60% < a6 ≤ 80%)"
